target: Pim-3 (Homo sapiens, UniProt Q86V86)
Construct: His6-labelled recombinant full-length human Pim-1, Pim-2 or Pim-3 protein; His6; made in house
test: TR-FRET assay, Pim-3 kinase (phosphorylation of Bad Ser112)
Assay type: biochemical
experimentalSetup: TR-FRET; ATP 40 μM; read-out: IC50 Pim3
Overview of reported IC50 across a group of compounds:

Here are 6 compounds together with their reported answers.
CC(=O)NCc1ccc(-c2c(F)cnc3[nH]c4cnc(-c5cccnc5)cc4c23)cc1 [Example 61]	1 to 100 nM
c1cncc(-c2cc3c(cn2)[nH]c2ncc(-c4ccc(OCCCN5CCOCC5)cc4)cc23)c1 [Example 149]	1 to 100 nM
CC(C)N1CCN(c2c(F)cnc3[nH]c4cnc(-c5cccnc5)cc4c23)CC1 [Example 75]	100 to 1000 nM
Fc1cnc2[nH]c3cnc(-c4cccnc4)cc3c2c1N1CCCCC1 [Example 76]	1 to 100 nM
CCN(CC)CCOc1ccc(-c2c(F)cnc3[nH]c4cnc(-c5cccnc5)cc4c23)cc1 [Example 100]	1 to 100 nM
CCOC(=O)/C=C/c1c(F)cnc2[nH]c3cnc(-c4cccnc4)cc3c12 [Example 29]	100 to 1000 nM

Summary for this compound, O=S(=O)(NC1CC1)c1ccc(-c2c(F)cnc3[nH]c4cnc(-c5cccnc5)cc4c23)cc1 [Example 28] : IC50 is 100 to 1000 nM

Summary for this compound, CC(C)N1CCN(c2ccc(-c3cnc4[nH]c5cnc(-c6cccnc6)cc5c4c3)cc2)CC1 [Example 122] : IC50 is 1 to 100 nM

Summary for this compound, Nc1ccc(-c2c(F)cnc3[nH]c4cnc(-c5cccnc5)cc4c23)cn1 [Example 74] : IC50 is 100 to 1000 nM

Summary for this compound, Cn1cc(-c2c(F)cnc3[nH]c4cnc(-c5cccnc5)cc4c23)cn1 [Example 60] : IC50 is 100 to 1000 nM

Summary for this compound, COc1ccc(-c2c(F)cnc3[nH]c4cnc(-c5cccnc5)cc4c23)cn1 [Example 52] : IC50 is 100 to 1000 nM
